Molecular target: T1, LIN7C, Q9NUP9
T1 sequence (Q9NUP9 88-185, limits assumed, looked up): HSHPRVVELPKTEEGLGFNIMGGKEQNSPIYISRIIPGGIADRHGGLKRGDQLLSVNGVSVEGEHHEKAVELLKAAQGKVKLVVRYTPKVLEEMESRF
Experiment: holdup assay
Set-up: key: below the threshold = too weak to quantify, mostly under pKd 3.1 to 4
Conditions: plain residues with an end cap or a label only (N-terminal biotin on a linker: ado-ado)

| BINDER | pKd |
| --- | --- |
| THREVKFTSL [CD46, P15529] | below the threshold |
| KEKASTETEC [TRPM1, Q7Z4N2] | 3.93 |
| PALKNGQYWV [CSPG4, Q6UVK1] | 4.15 |
| WAKEKQHTRL [SLC17A1, Q14916] | below the threshold |
| LVEEEEPMNL [HDAC7, Q8WUI4] | 4.12 |
| TKEIPNCTSV [SORCS3, Q9UPU3] | below the threshold |
| FVFESRKEIL [TBPL1, P62380] | 3.95 |
| PSDSVGKDVF [EGLN1, Q9GZT9] | below the threshold |
